Catalogue of residual activity readings, one per entry.
molecular target: UniProtKB P17252; assay: radiometric filter-binding kinase assay; conditions: compound 0.1 µM

Observe how each entry below is paired with its result.
Compound	Observable	Result
O=C(NCCCNc1nc(Nc2cccc(CN3CCOCC3)c2)ncc1C1CC1)C1CCC1	residual activity	79%
COc1cc(O)c2c(c1)[C@H]1OC1C[C@H](O)[C@H](O)C(=O)/C=C\C[C@H](C)OC2=O (stereo partly drawn)	residual activity	88%

Entry under test: NC(=O)Nc1ccc2c(c1)/C(=C/c1cc(-c3cccnc3)c[nH]1)C(=O)N2 . Its residual activity was 106%

* * *

molecular target: MAP3K5 (human); experiment: radiometric filter-binding kinase assay; settings: compound 10.0 µM
Would you please tag the item Yes when its residual activity is 90% or above, and No when it is below?

Past entries and their recorded results:
Molecule	Label Class
N#Cc1c(C2CCNCC2)cc(-c2c(O)cccc2OCC2CC2)nc1N	No
CC(C)C[C@H](NC(=O)CNC(=O)c1cc(Cl)ccc1Cl)B1OC(=O)CC(CC(=O)O)(C(=O)O)O1 (some centres not stated)	No
O=C(NOC[C@H](O)CO)c1ccc(F)c(F)c1Nc1ccc(I)cc1Cl	Yes

Shifting focus to the molecule that follows.
Lookup: Please tell me: is the molecule CNc1nc(-c2ccc3c(N)n[nH]c3c2)cc(N2C[C@@H](C(=O)NC3CCCCC3)CC[C@H]2C)n1 at or over 90% in terms of residual activity?
Found: Yes

* * *

Catalogue of residual activity readings, one per entry.
system: AKT1 (human), P31749 [S473D]; experiment: radiometric filter-binding kinase assay; conditions: compound 1.0 µM
Sequence (P31749 whole entry S473D, looked up): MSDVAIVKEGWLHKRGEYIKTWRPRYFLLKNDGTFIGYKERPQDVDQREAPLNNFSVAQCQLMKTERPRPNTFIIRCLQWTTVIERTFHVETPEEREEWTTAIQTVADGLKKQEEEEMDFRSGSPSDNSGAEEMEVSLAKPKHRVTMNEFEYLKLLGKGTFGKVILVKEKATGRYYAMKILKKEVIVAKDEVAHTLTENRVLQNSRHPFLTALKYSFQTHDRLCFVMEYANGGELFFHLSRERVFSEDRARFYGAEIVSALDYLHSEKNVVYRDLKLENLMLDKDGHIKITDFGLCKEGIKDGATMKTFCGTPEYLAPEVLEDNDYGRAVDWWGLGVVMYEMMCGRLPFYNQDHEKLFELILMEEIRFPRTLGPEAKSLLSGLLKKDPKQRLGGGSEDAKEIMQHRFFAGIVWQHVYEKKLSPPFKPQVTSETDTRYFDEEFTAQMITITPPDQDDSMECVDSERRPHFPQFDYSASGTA
Express your answer as a number followed by its unit.

The measured residual activity that O=c1c(O)c(-c2ccc(O)c(O)c2)oc2cc(O)c(O)c(O)c12 showed for AKT1 (human), P31749 [S473D] is 106%

* * *

target: EPHB2 (human); experiment: radiometric filter-binding kinase assay; conditions: compound 1.0 µM
Catalogue of residual activity readings, one per entry.
Response body: numeric value in %, unit text excluded.

Observe how each entry below is paired with its result.
Molecular String	Observable	Numeric Result
COc1cc2ncn(-c3cc(OCc4ccccc4S(C)(=O)=O)c(C#N)s3)c2cc1OC	residual activity	62
Cc1ccc(=O)n(-c2ccccc2)c1	residual activity	120
COc1cc(O)c2c(c1)/C=C/C[C@H](O)[C@H](O)C(=O)/C=C\C[C@H](C)OC2=O	residual activity	75
COc1cc(C(=O)N2CCOCC2)c(F)cc1Nc1ncc(C(F)(F)F)c(NC2CC2)n1	residual activity	92
FC(F)(F)c1ccc(-c2ccc(Oc3cncc4sc(-c5nn[nH]n5)cc34)cc2)cc1	residual activity	111

Entry under test: NC(=O)c1c(NC(=O)C2CC2)sc2c1CCCC2 . Its residual activity was 104

* * *

biological target: INSRR (human) (UniProt P14616); experiment: radiometric filter-binding kinase assay; conditions: compound 0.1 µM
Sequence (P14616 whole entry, looked up): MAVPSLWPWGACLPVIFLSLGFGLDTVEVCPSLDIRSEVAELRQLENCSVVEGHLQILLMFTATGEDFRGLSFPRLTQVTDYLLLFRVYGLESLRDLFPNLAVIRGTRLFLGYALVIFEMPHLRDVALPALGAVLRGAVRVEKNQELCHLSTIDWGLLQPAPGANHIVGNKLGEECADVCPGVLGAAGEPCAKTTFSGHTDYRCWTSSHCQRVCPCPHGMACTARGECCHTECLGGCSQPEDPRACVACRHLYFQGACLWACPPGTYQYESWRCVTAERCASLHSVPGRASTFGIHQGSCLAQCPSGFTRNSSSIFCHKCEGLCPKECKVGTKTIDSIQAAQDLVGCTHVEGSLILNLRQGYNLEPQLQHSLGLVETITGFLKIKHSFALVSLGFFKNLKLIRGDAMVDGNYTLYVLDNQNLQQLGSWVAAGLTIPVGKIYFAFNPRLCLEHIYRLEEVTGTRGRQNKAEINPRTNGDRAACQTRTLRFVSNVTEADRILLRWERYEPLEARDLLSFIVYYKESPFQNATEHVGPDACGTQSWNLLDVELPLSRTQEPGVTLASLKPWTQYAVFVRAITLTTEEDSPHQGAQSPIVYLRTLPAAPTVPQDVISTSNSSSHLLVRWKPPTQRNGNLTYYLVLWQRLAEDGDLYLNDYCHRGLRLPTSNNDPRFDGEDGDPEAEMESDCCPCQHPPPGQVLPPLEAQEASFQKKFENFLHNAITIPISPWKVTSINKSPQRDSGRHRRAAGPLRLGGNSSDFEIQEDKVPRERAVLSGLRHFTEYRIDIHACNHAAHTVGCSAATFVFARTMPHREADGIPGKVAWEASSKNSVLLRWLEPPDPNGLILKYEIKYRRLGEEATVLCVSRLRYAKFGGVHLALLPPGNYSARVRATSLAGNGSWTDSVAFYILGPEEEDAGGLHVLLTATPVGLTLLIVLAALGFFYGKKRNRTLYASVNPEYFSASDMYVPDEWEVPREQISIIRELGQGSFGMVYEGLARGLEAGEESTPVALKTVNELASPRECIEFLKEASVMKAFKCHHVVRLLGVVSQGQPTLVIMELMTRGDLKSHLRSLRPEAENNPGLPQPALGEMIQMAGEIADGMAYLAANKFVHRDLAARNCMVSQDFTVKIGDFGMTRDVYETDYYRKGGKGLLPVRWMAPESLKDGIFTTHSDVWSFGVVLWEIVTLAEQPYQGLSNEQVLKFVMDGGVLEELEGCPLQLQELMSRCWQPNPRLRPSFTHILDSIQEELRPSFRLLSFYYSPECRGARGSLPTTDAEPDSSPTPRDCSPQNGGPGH
Catalogue of residual activity readings, one per entry.
Response body: numeric value in %, unit text excluded.

Observe how each entry below is paired with its result.
Compound	residual activity / %
O=C(NCCCNc1nc(Nc2cccc(CN3CCOCC3)c2)ncc1C1CC1)C1CCC1	107
COc1cc(O)c2c(c1)[C@H]1OC1C[C@H](O)[C@H](O)C(=O)/C=C\C[C@H](C)OC2=O (some centres undefined)	108
c1ccc2c(-c3cnn4cc(-c5ccc(N6CCNCC6)cc5)cnc34)ccnc2c1	82
O=C(O)c1ccc(-c2c[nH]c3ncc(-c4ccccc4)cc23)cc1C1CCCC1	98

Entry under test: CCCCCc1ccc(/C=C/[C@H](O)[C@@H](CO)NC)cc1 . Its residual activity was 99

Entry under test: NC(=O)c1cc(-c2ccnc(NC3CCCCC3)c2)nc(N2CCNCC2)c1 . Its residual activity was 100

Entry under test: CCc1cncnc1N1CCN(Cc2nc3cc(C(F)(F)F)ccc3[nH]2)CC1 . Its residual activity was 88

Entry under test: CNc1nc(-c2ccc3c(N)n[nH]c3c2)cc(N2C[C@@H](C(=O)NC3CCCCC3)CC[C@H]2C)n1 . Its residual activity was 111

Entry under test: CCn1c(-c2nonc2N)nc2cncc(CNC3CCNCC3)c21 . Its residual activity was 71

Entry under test: Cn1c(=O)c2c(ncn2C)n(C)c1=O . Its residual activity was 86
